test system: Escherichia coli TOP10; assay: shrunken log2 fold change of peptide-encoding DNA abundance (4.5 h post-induction vs induction); higher = less antimicrobial activity (less host growth inhibition); settings: time post-induction: 4.5 h; library: site-saturation at positions 5, 18, 19, 20
assay.metric: shrunken log2 fold change
Hey, just send me the number, nothing else.

See these solved cases before continuing.
[
  {
    "entry.sequence": "RRIRPRPPRLPRPRPRPPFPPRP",
    "tgt": "Escherichia coli TOP10",
    "recorded.result": 0.454
  },
  {
    "entry.sequence": "RRIRLRPPRLPRPRPRPQFQPRP",
    "tgt": "Escherichia coli TOP10",
    "recorded.result": -0.0476
  },
  {
    "entry.sequence": "RRIRTRPPRLPRPRPRPMFQPRP",
    "tgt": "Escherichia coli TOP10",
    "recorded.result": -0.446
  }
]

Value (shrunken log2 fold change, Escherichia coli TOP10) for record `RRIRMRPPRLPRPRPRPVDLPRP` = 0.405

Noted shrunken log2 fold change for `RRIRPRPPRLPRPRPRPECMPRP` , tested on Escherichia coli TOP10: 0.212

Assay Escherichia coli TOP10, sample `RRIRARPPRLPRPRPRPQIGPRP` , shrunken log2 fold change read: 3.24

`RRIRHRPPRLPRPRPRPAQVPRP` tested on Escherichia coli TOP10 gave shrunken log2 fold change: -0.0333

Observed shrunken log2 fold change on Escherichia coli TOP10, entry `RRIRTRPPRLPRPRPRPTDGPRP` , equals -0.0714

Measured shrunken log2 fold change (Escherichia coli TOP10), entry `RRIRLRPPRLPRPRPRPTWMPRP` : -0.0614

GET /values?item= `RRIRLRPPRLPRPRPRPMHQPRP` &system= Escherichia coli TOP10 returns shrunken log2 fold change: 0.136

---

system: Escherichia coli TOP10; assay: shrunken log2 fold change of peptide-encoding DNA abundance (4.5 h post-induction vs induction); higher = less antimicrobial activity (less host growth inhibition); conditions: time post-induction: 4.5 h; library: site-saturation at positions 5, 18, 19, 20
shrunken log2 fold change below -0.1 gives 0 (no); shrunken log2 fold change at or above it gives 1 (yes).

Below, 6 sequences whose answers are already recorded.
[
  {
    "entry.sequence": "RRIRWRPPRLPRPRPRPSPQPRP",
    "label.value": "1 (yes)"
  },
  {
    "entry.sequence": "RRIRQRPPRLPRPRPRPMTCPRP",
    "label.value": "1 (yes)"
  },
  {
    "entry.sequence": "RRIRHRPPRLPRPRPRPIACPRP",
    "label.value": "1 (yes)"
  },
  {
    "entry.sequence": "RRIRARPPRLPRPRPRPNYNPRP",
    "label.value": "0 (no)"
  },
  {
    "entry.sequence": "RRIRMRPPRLPRPRPRPACAPRP",
    "label.value": "1 (yes)"
  },
  {
    "entry.sequence": "RRIRSRPPRLPRPRPRPDRDPRP",
    "label.value": "1 (yes)"
  }
]

Reported shrunken log2 fold change at or above -0.1? `RRIRSRPPRLPRPRPRPVKLPRP`
0 (no)

Could you tell me if the measured shrunken log2 fold change of `RRIRQRPPRLPRPRPRPAPIPRP` reaches -0.1 or more?
1 (yes)

Is the recorded value of shrunken log2 fold change equal to or greater than -0.1 for this sequence? `RRIRDRPPRLPRPRPRPLNKPRP`
0 (no)

Could you please find out whether `RRIRGRPPRLPRPRPRPDHFPRP` has shrunken log2 fold change that meets -0.1 or exceeds it?
0 (no)

Would you say `RRIRPRPPRLPRPRPRPLQKPRP` shows shrunken log2 fold change at minimum -0.1?
1 (yes)

Hello, I need to know if `RRIRLRPPRLPRPRPRPIMVPRP` has measured shrunken log2 fold change not below -0.1. Thanks!
0 (no)

---

tested on: Escherichia coli TOP10; test: shrunken log2 fold change of peptide-encoding DNA abundance (4.5 h post-induction vs induction); higher = less antimicrobial activity (less host growth inhibition); conditions: time post-induction: 4.5 h; library: site-saturation at positions 5, 18, 19, 20
assay.metric: shrunken log2 fold change
Lab note: write the figure by itself, no unit.

[
  {
    "entry.sequence": "RRIRTRPPRLPRPRPRPRRVPRP",
    "tgt": "Escherichia coli TOP10",
    "shrunken log2 fold change": 0.329
  },
  {
    "entry.sequence": "RRIRTRPPRLPRPRPRPNEHPRP",
    "tgt": "Escherichia coli TOP10",
    "shrunken log2 fold change": -0.198
  },
  {
    "entry.sequence": "RRIRFRPPRLPRPRPRPAQWPRP",
    "tgt": "Escherichia coli TOP10",
    "shrunken log2 fold change": 0.296
  },
  {
    "entry.sequence": "RRIRYRPPRLPRPRPRPQWPPRP",
    "tgt": "Escherichia coli TOP10",
    "shrunken log2 fold change": -0.533
  },
  {
    "entry.sequence": "RRIRMRPPRLPRPRPRPHFIPRP",
    "tgt": "Escherichia coli TOP10",
    "shrunken log2 fold change": 0.0859
  },
  {
    "entry.sequence": "RRIRWRPPRLPRPRPRPVKVPRP",
    "tgt": "Escherichia coli TOP10",
    "shrunken log2 fold change": -0.0471
  }
]

Hey, Escherichia coli TOP10 data for `RRIRKRPPRLPRPRPRPVFEPRP` : shrunken log2 fold change came out at 0.347

---

system: Escherichia coli TOP10; assay: shrunken log2 fold change of peptide-encoding DNA abundance (4.5 h post-induction vs induction); higher = less antimicrobial activity (less host growth inhibition); conditions: time post-induction: 4.5 h; library: site-saturation at positions 5, 18, 19, 20
assay.metric: shrunken log2 fold change
# answer = number (no unit)

[
  {
    "entry.sequence": "RRIRPRPPRLPRPRPRPPAYPRP",
    "tgt": "Escherichia coli TOP10",
    "shrunken log2 fold change": -0.0312
  },
  {
    "entry.sequence": "RRIRMRPPRLPRPRPRPHNMPRP",
    "tgt": "Escherichia coli TOP10",
    "shrunken log2 fold change": -0.243
  },
  {
    "entry.sequence": "RRIRGRPPRLPRPRPRPLLQPRP",
    "tgt": "Escherichia coli TOP10",
    "shrunken log2 fold change": 0.486
  },
  {
    "entry.sequence": "RRIRWRPPRLPRPRPRPGMHPRP",
    "tgt": "Escherichia coli TOP10",
    "shrunken log2 fold change": 0.343
  },
  {
    "entry.sequence": "RRIRNRPPRLPRPRPRPHSSPRP",
    "tgt": "Escherichia coli TOP10",
    "shrunken log2 fold change": -0.00587
  },
  {
    "entry.sequence": "RRIRKRPPRLPRPRPRPCFIPRP",
    "tgt": "Escherichia coli TOP10",
    "shrunken log2 fold change": -0.13
  },
  {
    "entry.sequence": "RRIRWRPPRLPRPRPRPCGLPRP",
    "tgt": "Escherichia coli TOP10",
    "shrunken log2 fold change": 0.123
  },
  {
    "entry.sequence": "RRIRLRPPRLPRPRPRPHKKPRP",
    "tgt": "Escherichia coli TOP10",
    "shrunken log2 fold change": -0.163
  },
  {
    "entry.sequence": "RRIRERPPRLPRPRPRPDGYPRP",
    "tgt": "Escherichia coli TOP10",
    "shrunken log2 fold change": 0.0107
  },
  {
    "entry.sequence": "RRIRCRPPRLPRPRPRPMFRPRP",
    "tgt": "Escherichia coli TOP10",
    "shrunken log2 fold change": -0.179
  }
]

// recorded shrunken log2 fold change for `RRIRGRPPRLPRPRPRPIIIPRP` : -0.167

Notebook: `RRIRWRPPRLPRPRPRPMTLPRP` , shrunken log2 fold change read as -0.0611

shrunken log2 fold change measured on `RRIRIRPPRLPRPRPRPFKIPRP` = -0.144

---

tested on: Escherichia coli TOP10; experiment: shrunken log2 fold change of peptide-encoding DNA abundance (4.5 h post-induction vs induction); higher = less antimicrobial activity (less host growth inhibition); settings: time post-induction: 4.5 h; library: site-saturation at positions 5, 18, 19, 20;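 note: peptides expressed intracellularly from a pBAD plasmid library in pooled LB shake-flask culture, induced with 0.3% L-arabinose, DNA abundance read by NGS, three biological replicates, DESeq2 with apeglm shrinkage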
assay.metric: shrunken log2 fold change

[
  {
    "entry.sequence": "RRIRQRPPRLPRPRPRPISEPRP",
    "tgt": "Escherichia coli TOP10",
    "shrunken log2 fold change": 0.0446
  },
  {
    "entry.sequence": "RRIRSRPPRLPRPRPRPWCLPRP",
    "tgt": "Escherichia coli TOP10",
    "shrunken log2 fold change": -0.11
  }
]

shrunken log2 fold change in this record for `RRIRGRPPRLPRPRPRPASEPRP` : 1.13

Values were extracted from the supplement of paper PMC9112550.
